Assay: Plasma pharmacokinetics of emodepside, single ascending dose (SAD) and food effect study
Type: in vivo, human
Details: human, in vivo, po, 5 mg
attributeMeasured: F rel (%)
Hi! Could you send only the number? It should be in %, unit omitted.

Kindly note the recorded F rel for CC(C)C[C@H]1C(=O)O[C@H](Cc2ccc(N3CCOCC3)cc2)C(=O)N(C)[C@@H](CC(C)C)C(=O)O[C@H](C)C(=O)N(C)[C@@H](CC(C)C)C(=O)O[C@H](Cc2ccc(N3CCOCC3)cc2)C(=O)N(C)[C@@H](CC(C)C)C(=O)O[C@H](C)C(=O)N1C [emodepside] , which is 35

---

Assay: Plasma pharmacokinetics of emodepside, multiple ascending dose (MAD) study
Assay type: in vivo, human
Details: human, plasma, po, 5 mg, 5 mg OD LSF fasting, Day 10, mean (CV%), read-out: CL ss /F (converted)
attributeMeasured: CL/F (mL/min)
// note: answer is a bare numeric in mL/min

Per the record, CC(C)C[C@H]1C(=O)O[C@H](Cc2ccc(N3CCOCC3)cc2)C(=O)N(C)[C@@H](CC(C)C)C(=O)O[C@H](C)C(=O)N(C)[C@@H](CC(C)C)C(=O)O[C@H](Cc2ccc(N3CCOCC3)cc2)C(=O)N(C)[C@@H](CC(C)C)C(=O)O[C@H](C)C(=O)N1C [emodepside] has CL/F of 49.3
